All figures here come from patent US20180213796A1.

Test system: damping-off fungus (Rhizoctonia solani)
Assay Method Text: Test Example 14: corn seed treatment, pot test in soil mixed with damping-off fungus, control value
Format: in vivo
Particulars: corn seeds; compound alone 0.01 g/Kg seeds; 20 days after
Items are presented alongside their recorded Controlling Effect (control value).
Value expressed in %; do not type the unit.

# count of solved cases: 4
Task: Data request, read-out Controlling Effect (control value), for CC1(C)CCC(=Cc2ccc(Cl)cc2)C1(O)Cn1cncn1 (centres unmarked) [Triticonazole]
Result: 25

Task: Data request, read-out Controlling Effect (control value), for OC(Cc1ccccc1Cl)(Cn1nc[nH]c1=S)C1(Cl)CC1 (centres unmarked) [Prothioconazole]
Result: 50

Task: Data request, read-out Controlling Effect (control value), for CC(C)(C)C(O)C(Oc1ccc(Cl)cc1)n1cncn1 (centres unmarked) [Triadimenol]
Result: 42

Task: Data request, read-out Controlling Effect (control value), for CC(C)(C)C(O)(CCc1ccc(Cl)cc1)Cn1cncn1 (centres unmarked) [Tebuconazole]
Result: 25

More entries:
Task: Data request, read-out Controlling Effect (control value), for Clc1ccc(C2(Cn3cncn3)CC(Br)CO2)c(Cl)c1 (centres unmarked) [Bromconazole]
Result: 33
